MEASUREMENT TARGET: PDE4B2 (Homo sapiens, UniProt Q07343)
Construct: purchased Scottish Biomedical (Glasgow, Scotland, UK); host or cells: baculoviral system
Sequence (Q07343 1-564 isoform Q07343-2): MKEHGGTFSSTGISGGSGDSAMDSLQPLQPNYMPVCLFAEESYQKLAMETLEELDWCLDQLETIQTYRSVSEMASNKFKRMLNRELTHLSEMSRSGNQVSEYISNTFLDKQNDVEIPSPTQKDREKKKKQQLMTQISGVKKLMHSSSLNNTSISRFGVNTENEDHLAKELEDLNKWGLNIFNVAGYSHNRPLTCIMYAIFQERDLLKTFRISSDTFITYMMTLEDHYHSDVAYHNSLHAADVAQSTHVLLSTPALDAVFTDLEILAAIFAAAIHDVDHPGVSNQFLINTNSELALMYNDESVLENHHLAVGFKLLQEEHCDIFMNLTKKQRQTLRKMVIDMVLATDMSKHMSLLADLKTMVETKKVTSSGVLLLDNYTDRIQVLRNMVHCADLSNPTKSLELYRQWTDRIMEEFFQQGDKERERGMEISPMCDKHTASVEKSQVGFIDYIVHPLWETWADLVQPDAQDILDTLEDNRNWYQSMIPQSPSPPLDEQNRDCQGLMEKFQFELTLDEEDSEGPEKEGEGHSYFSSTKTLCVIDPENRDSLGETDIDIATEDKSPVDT
PROTOCOL NOTES: PDE4B2 enzyme inhibition (IMAP)
Format: biochemical
CONDITION CONTEXT: 10 μM
As shown below, each of these compounds has a reported PDE4B2 % inib at 10 μM value.

COMPOUND	MEASUREMENT UNITS	PDE4B2 % inib at 10 μM
COc1ccc(-c2ccn(CC(O)CN3CC(C)OC(C)C3)n2)cc1OC1CCCC1 (centres unmarked)	%	53.0
COc1ccc(C2=NOC(CC(=O)N(CCO)CCO)C2)cc1OC1CCCC1 (centres unmarked)	%	68
COc1ccc(C2=NOC(CC(=O)N3CC(C)OC(C)C3)C2)cc1OC1CCCC1 (centres unmarked)	%	27
COc1ccc(-c2ccn(CC(O)CN3CCOCC3)n2)cc1OC1CCCC1 (centres unmarked)	%	18
COc1ccc(C2=NOC(CC(=O)N3CCCC3)C2)cc1OC1CCCC1 (centres unmarked)	%	59
COc1ccc(-c2ccn(CCC(=O)N3CC(C)OC(C)C3)n2)cc1OC1CCCC1 (centres unmarked)	%	28
COc1ccc(-c2cc(C(O)CN3CC(C)OC(C)C3)on2)cc1OC1CCCC1 (centres unmarked)	%	5
OC(CN1CCOCC1)Cn1ccc(-c2ccc(OC(F)F)c(OC3CCCC3)c2)n1 (centres unmarked)	%	26
